Target: human dopamine D4.4 receptor (Homo sapiens)
Sequence (P21917 whole entry): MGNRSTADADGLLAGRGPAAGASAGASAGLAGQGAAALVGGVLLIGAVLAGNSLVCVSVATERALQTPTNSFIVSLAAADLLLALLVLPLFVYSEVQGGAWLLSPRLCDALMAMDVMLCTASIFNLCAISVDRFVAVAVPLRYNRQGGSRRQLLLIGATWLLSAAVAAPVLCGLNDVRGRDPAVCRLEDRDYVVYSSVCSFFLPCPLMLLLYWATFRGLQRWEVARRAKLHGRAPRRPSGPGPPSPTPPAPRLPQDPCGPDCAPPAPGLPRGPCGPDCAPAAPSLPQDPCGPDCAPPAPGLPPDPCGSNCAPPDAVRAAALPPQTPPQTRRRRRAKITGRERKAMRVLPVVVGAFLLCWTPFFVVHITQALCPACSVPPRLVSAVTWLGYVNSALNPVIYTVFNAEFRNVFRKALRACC
Assay: Human dopamine D4.4 receptor radioligand binding assay (Eurofins)
Conditions: read-out: D4.4 IC50; Eurofins Discovery
measurement name: IC50 (nM)

[
  {
    "compound": "Cc1ccc(C(=O)N2CC3(CCN(Cc4c[nH]c5cc(F)ccc45)C(C)C3)C2)cc1C (stereo not shown)",
    "experimental system": "human dopamine D4.4 receptor (Homo sapiens)",
    "IC50 (nM)": 1920
  }
]

A = Cc1ccc(C(=O)N2CC3(CCN(Cc4c[nH]c5cc(F)ccc45)CC3)C2)cc1
B = Cc1ccc(C(=O)N2CC3(CCN(Cc4c[nH]c5cc(F)ccc45)CC3C)C2)cc1C (stereo not shown)
stdin: Hi there, can you help? I need to know whether A or B has lower measured IC50. Write down the label of the entry you select.
stdout: A
